- target of assay: T1, TLR7 WT (mmTLR7) (Macaca mulatta, UniProt B3Y653 27-839)
- T1 sequence: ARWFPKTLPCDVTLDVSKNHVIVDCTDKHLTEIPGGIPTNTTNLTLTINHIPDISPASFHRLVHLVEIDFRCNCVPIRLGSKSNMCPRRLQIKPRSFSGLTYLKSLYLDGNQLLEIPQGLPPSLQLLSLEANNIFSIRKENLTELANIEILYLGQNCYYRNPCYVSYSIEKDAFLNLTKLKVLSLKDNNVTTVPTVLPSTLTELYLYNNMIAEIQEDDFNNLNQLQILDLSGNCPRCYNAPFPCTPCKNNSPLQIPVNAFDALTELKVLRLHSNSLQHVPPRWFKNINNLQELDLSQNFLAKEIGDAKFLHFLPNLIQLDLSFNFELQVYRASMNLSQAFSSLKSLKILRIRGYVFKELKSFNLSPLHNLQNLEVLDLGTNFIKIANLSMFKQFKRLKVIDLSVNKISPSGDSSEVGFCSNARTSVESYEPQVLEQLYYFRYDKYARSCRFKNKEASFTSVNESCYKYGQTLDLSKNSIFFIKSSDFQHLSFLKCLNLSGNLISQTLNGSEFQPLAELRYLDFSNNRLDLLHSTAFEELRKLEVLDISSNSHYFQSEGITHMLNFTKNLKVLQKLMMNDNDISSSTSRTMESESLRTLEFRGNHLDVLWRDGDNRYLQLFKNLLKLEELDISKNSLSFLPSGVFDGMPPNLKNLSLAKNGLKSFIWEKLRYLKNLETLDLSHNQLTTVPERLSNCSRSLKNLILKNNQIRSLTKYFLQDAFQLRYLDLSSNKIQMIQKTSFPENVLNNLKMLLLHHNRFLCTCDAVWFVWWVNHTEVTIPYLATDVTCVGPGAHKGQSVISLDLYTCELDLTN
- assay details: SPR; average; runs 7±2, 7±1, 6±1, 4±2, 4±2; SPR with recombinant TLR7/TLR8; buffer, pH and temperature not in the material
- measurement conditions: protein: recombinant; chain copies: 2; single-stranded
value type: pKd
pKd is a log-scale quantity: -log10 of the concentration expressed in molar.

[ask] Can you share its pKd? I mean this binder: GUC (XNA, 2'-OMe G1, 2'-OMe U2, DNA C3; phosphorothioate linkages, stereo-random) [GUC-v1 PS (mGmUdC)]
[reply] 5.25
